Test system: SK-MEL-2
assay-summary: NCI tumour cell line growth inhibition, 48 h
Calls of active or inactive are those of the source. Rule as the data show it: active = GI50 up to about 1.1 µM and inactive = higher.
Consider the following compounds and their measured GI50 readings.

# annotated cases, reported GI50 shown
>  <entry-smiles>
O=[N+]([O-])c1ccc2c(c1)=[N+]([O-])C1(CCCCC1)[N+]=2[O-]

>  <GI50>
22.1 µM (inactive)

$$$$
>  <entry-smiles>
CCOc1cc2c(c(OCC)c1O)CC[C@@H]1[C@@H]2CC[C@]2(C)[C@@H](O)CC[C@@H]12

>  <GI50>
14 µM (inactive)

$$$$
>  <entry-smiles>
COc1ccc(/C=C2\Sc3nnc(C)n3N=C2c2cc(F)c(Cl)cc2Cl)cc1OC

>  <GI50>
15.9 µM (inactive)

$$$$

Request: Complete the entry with GI50 for O=C(O)Cc1cccc2c(=O)cc(-c3ccccc3)oc12
Response: 153 µM (inactive)

Request: Identify the reported GI50 for the following entry. N#Cc1sc2c(c1O)c(=O)n(-c1ccccc1)c(=S)n2-c1ccccc1
Response: > 100 µM (inactive)

###

Test system: OVCAR-5
assay-summary: NCI tumour cell line growth inhibition, 48 h
The source made the active and inactive calls. No stated cut-off is given here; in the data, active = GI50 up to about 1.1 µM and inactive = higher.
reported-endpoint: GI50

>  <compound>
CCOC(=O)c1nc2ccccc2nc1Nc1ccc(F)cc1

>  <result-value>
> 59.3 µM (inactive)

$$$$
>  <compound>
COC(=O)/C(=C(\C)NC(C)=O)c1c(C(=O)OC)[nH]c2ccccc12

>  <result-value>
> 100 µM (inactive)

$$$$
>  <compound>
O=C1/C(=C\c2cccc(Oc3ccccc3)c2)S(=O)(=O)C(c2ccccc2)N1c1cc(Cl)ccc1Cl (stereo unspecified)

>  <result-value>
20.4 µM (inactive)

$$$$
>  <compound>
CCCCN(CCCC)C(=O)C(=O)C(C(=O)c1ccc(OC)cc1)c1ccc(OC)cc1 (stereo unspecified)

>  <result-value>
> 100 µM (inactive)

$$$$
>  <compound>
NNc1[nH]c(=S)[nH]c1C(N)=O

>  <result-value>
> 100 µM (inactive)

$$$$

Request: Note GI50 for the compound shown: Clc1c2ncccc2cc2nn[nH]c12
Response: 74.5 µM (inactive)

Request: Item NC(=O)NO [HYDROXYUREA] : provide GI50
Response: 601 µM (inactive)

Request: Please report GI50 for the following compound: C/N=C1\OC2=C3C(c4ccccc4)(O/C(=N/C)N(C)C3(c3ccccc3)OC2=O)N1C (stereo unspecified)
Response: > 100 µM (inactive)

Request: Provide one value: measured GI50 of O=C(CCc1nnc(S)[nH]1)Nc1cc(Cl)c(Cl)cc1Cl
Response: > 100 µM (inactive)

Request: Specify GI50 for N=C(NC(=N)Nc1ccc(S(=O)(=O)Nc2cnc3ccccc3n2)cc1)Nc1ccc(Br)cc1 and stop.
Response: > 100 µM (inactive)

Request: Input Cc1ccc(C2=CC(=O)/C(=C\C(=O)c3ccc(Cl)cc3)O2)cc1 , output reported GI50.
Response: 21.1 µM (inactive)

###

Test system: EKVX
assay-summary: NCI tumour cell line growth inhibition, 48 h
Calls of active or inactive are those of the source. Cut-off read from the data, not from the text of the source: active = GI50 up to about 1.1 µM and inactive = higher.
reported-endpoint: GI50

Completed entries (count: 5):
>  <compound>
CCC/C(Cl)=N/OC(=O)Nc1cc(C(F)(F)F)ccc1OC

>  <assay-target>
EKVX

>  <GI50>
7.24 µM (inactive)

$$$$
>  <compound>
CNc1ccc([N+](=O)[O-])cc1C(=O)N1CCC[C@H]1CO

>  <assay-target>
EKVX

>  <GI50>
> 100 µM (inactive)

$$$$
>  <compound>
CCC(=O)COc1ccc(NC(NC(=O)C(C(F)(F)F)C(F)(F)F)(C(F)(F)F)C(F)(F)F)cc1

>  <assay-target>
EKVX

>  <GI50>
49.2 µM (inactive)

$$$$
>  <compound>
COc1ccc2[nH]c3c([N+](=O)[O-])ccc(NCCN(C)C)c3/c(=N/CCN(C)C)c2c1

>  <assay-target>
EKVX

>  <GI50>
2.24 µM (inactive)

$$$$
>  <compound>
COc1ccc2c(c1)CCCN2S(=O)(=O)c1ccccc1[N+](=O)[O-]

>  <assay-target>
EKVX

>  <GI50>
56 µM (inactive)

$$$$

Request: Supply recorded GI50 for CSC(=S)NNC(=O)c1ccncc1 here.
Response: 22.2 µM (inactive)

Request: Given the compound CC1=C(Cl)C=CP(=O)(Oc2ccccc2)C1 (stereo not given) , write its reported GI50.
Response: > 100 µM (inactive)

Request: State its GI50: COC(=O)C1C(/C=C/c2ccoc2)ON2CCC[C@@H]12 (stereo not given in full)
Response: > 100 µM (inactive)

Request: Consider the compound NC(=S)N/N=C1\CCCCC1C(O)(C(F)(F)Cl)C(F)(F)Cl (stereo not given) and give its recorded GI50.
Response: > 10 µM (inactive)

Request: Specify GI50 for c1ccc(-c2cc(-c3cc(-c4ccccn4)[nH]n3)n[nH]2)nc1 and stop.
Response: 25.4 µM (inactive)
